Target: T1, Bfl-1, Q16548
T1 chain: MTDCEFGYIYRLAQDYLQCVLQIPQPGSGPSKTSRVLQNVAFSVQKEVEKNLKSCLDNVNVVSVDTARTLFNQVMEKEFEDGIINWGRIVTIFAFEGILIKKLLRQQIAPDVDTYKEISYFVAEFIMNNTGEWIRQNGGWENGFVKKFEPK
Assay: peptide SPOT array, c-Myc-tagged receptor at 1 uM or 100 nM, anti-c-Myc-Cy3
Provide the recorded SPOT signal as a fraction of Bim BH3's signal on the same receptor and array for the entries that follow.
Give bare numbers.

binder	measurement
DDMFEPHSWNLKELLDDCFQQWGVRP [PRCP]	0.05
SHFVACMTAIDNQMGDQHYSFYIETF [DOCK2]	0.05
DAIIQMIVELLKRVGDQWEEEQSLAS [C6orf222]	0.06

Consider the record given below.
The binder listed as DSLLWKLAGLLRESGDVVLSGCSTLS [STK11IP] shows SPOT signal as a fraction of Bim BH3's signal on the same receptor and array equal to 0.04
